# assay-procedure: Tissue distribution of radioactivity in rats after intravenous administration
# Format: in vivo
# details: rat, kidneys, iv, 6 h, read-out: Distribution of radioactivity, Kidneys
recorded-endpoint: tissue uptake at 6 h (%ID/g)
Give bare numbers, in %ID/g.

Find the recorded tissue uptake at 6 h belonging to O=C(O)CCCC[Te]CCCCCCCCCc1ccc([125I])cc1 and report it. 1.12

* * *

# assay-procedure: Tissue distribution of radioactivity in rats after intravenous administration
# Format: in vivo
# details: rat, kidneys, iv, 30 min, read-out: Distribution of radioactivity, Kidneys
recorded-endpoint: tissue uptake at 0.5 h (%ID/g)
Numbers only, in %ID/g.

Find the recorded tissue uptake at 0.5 h belonging to O=C(O)CCCC[Te]CCCCCCCCCc1ccc([125I])cc1 and report it. 1.25
